# assayName: Pharmacokinetic analysis, plasma and brain levels
# Assay type: in vivo
# studyConditions: male, Crl:CD1 (ICR), mouse, ip; plasma, single intraperitoneal injection 30 mg/kg, ICR mice, n = 3
recordedMetric: Tmax (min)

1) NC1CCC(NC2CC2c2cc(F)cc(F)c2OCc2ccccc2)CC1 (stereo not shown)
15

----------
Each item that follows carries a reported IC50.
# Test system: WI38
# assayName: Cell proliferation assay (Cell Counting Kit 8)
# Assay type: cell-based
# studyConditions: Homo sapiens, WI-38, 96 h; WI38 (normal fibroblast), 4 days; read-out: Growth inhibitory IC50 (GI50)
recordedMetric: IC50

1) NC1CC1c1cc(F)cc(F)c1OCc1ccccc1 (stereo not drawn) [S2101]
> 40 µM
2) CN1CCN(C(=O)CNC2CC2c2cc(F)cc(F)c2OCc2ccccc2)CC1 (stereo not drawn) [S2157]
> 40 µM
3) NC1CCC(NC2CC2c2cc(F)cc(F)c2OCc2ccccc2)CC1 (stereo not drawn) [S2172]
29.9 µM
